Entries with their measured pIC50, system ENPP1 protein (Homo sapiens):
Counter-ions that a name gives are not always drawn.
Recall that pIC50 is obtained by taking minus log10 of the concentration measured in molar.

[
  {
    "molecule": "COc1cc2nccc(N3CCC(C4(CNS(N)(=O)=O)CC4)CC3)c2cc1OCF",
    "reported endpoint": "pIC50",
    "recorded value": 8.96
  },
  {
    "molecule": "COc1cc2nccc(N3CCC(C(C)CNS(N)(=O)=O)CC3)c2cc1OCCO (stereo not drawn) [Compound I-11, formate salt]",
    "reported endpoint": "pIC50",
    "recorded value": 5.35
  }
]

Switching to the query record.
Hello, please tell me recorded pIC50 for this one: COc1cc2ncnc(N3CCC(CCNS(N)(=O)=O)CC3)c2cc1OP(=O)(O)O [Compound I-03, phosphate]
5.54
